Would you mind telling me the reported fold (KD vs average of 4 runs of L1A2) of each entry?
- target-or-test-system: Clade C DU172.17 gp120 protein (HIV-1 Clade C, DU172.17)
- test-description: BLI (Octet), IgG on anti-hIgG Fc sensor, gp120 analyte, 1:1 fit
Answers are plain numbers, in fold.

INSERT INTO assay_data (binder, readout_kind, number) VALUES
  ('CysCV (antibody, V domains shown) VH: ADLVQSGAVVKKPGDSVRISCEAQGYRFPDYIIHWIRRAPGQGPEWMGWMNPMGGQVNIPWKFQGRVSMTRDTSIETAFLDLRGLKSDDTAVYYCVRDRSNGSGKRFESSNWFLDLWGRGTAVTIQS VL: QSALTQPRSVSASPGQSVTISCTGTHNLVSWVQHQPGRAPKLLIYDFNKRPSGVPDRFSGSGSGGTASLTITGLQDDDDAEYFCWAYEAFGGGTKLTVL', 'fold (KD vs average of 4 runs of L1A2)', 1.05),
  ('Hydro2 (antibody, V domains shown) VH: ADLVQSGAVVKKPGDSVRISCEAQGYRFPDYIIHWIRRAPGQGPEWMGWMNPMGGQVNIPQKFQGRVSMTRDTSIETAFLDLRGLKSDDTAVYYCVRDRSNGSGKRFESSNWFLDLWGRGTAVTIQS VL: QSALTQPRSVSASPGQSVTISCTGTHNLVSWCQHQPGRAPKLLIYDFNKRPSGVPDRFSGSGSGGTASLTITGLQDDDDAEYFCWAYENFGGGTKLTVL', 'fold (KD vs average of 4 runs of L1A2)', 2.18);

Kindly review the next binder as well.
# fold (KD vs average of 4 runs of L1A2) lookup, item Germ12_NglycoSA_CysCA (antibody, V domains shown) VH: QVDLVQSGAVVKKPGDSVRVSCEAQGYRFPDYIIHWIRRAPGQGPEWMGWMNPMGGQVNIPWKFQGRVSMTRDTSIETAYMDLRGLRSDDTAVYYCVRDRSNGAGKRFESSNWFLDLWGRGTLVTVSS VL: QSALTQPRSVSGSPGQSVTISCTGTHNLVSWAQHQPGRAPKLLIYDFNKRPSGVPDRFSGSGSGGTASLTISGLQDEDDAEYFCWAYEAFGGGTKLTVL 0.71

This collection of values is drawn from patent US20210040184A1.
